src = patent US8058243B2

# Test system: murine neural precursor cells (neurosphere cultures)
# method_summary: HTS of LOPAC library against secondary neurosphere cultures, MTT proliferation assay at 3 μM, day 7 (z score, P value)
# Format: cell-based, mouse
# assay_setup: LOPAC primary screen, neurosphere MTT proliferation, 3 μM, day 7
property: Z score
Number only, please.

// below: answered compounds
{"compound": "Oc1ccc(C=Cc2cc(O)cc(O)c2)cc1", "study_target": "murine neural precursor cells (neurosphere cultures)", "numeric_readout": "−0.230"}
{"compound": "N.N.[Cl][Pt][Cl] [Cisplatin]", "study_target": "murine neural precursor cells (neurosphere cultures)", "numeric_readout": 1.523}
{"compound": "N/C(=N\\C(=O)c1nc(Cl)c(N)nc1N)NCc1ccc(Cl)c(Cl)c1", "study_target": "murine neural precursor cells (neurosphere cultures)", "numeric_readout": "−2.581"}
{"compound": "CN(C)c1cc2c(Nc3ccc4c(cnn4Cc4ccccc4)c3)ncnc2cn1", "study_target": "murine neural precursor cells (neurosphere cultures)", "numeric_readout": "−0.516"}
{"compound": "NS(=O)(=O)c1cc2c(cc1Cl)NCNS2(=O)=O [Hydrochlorothiazide]", "study_target": "murine neural precursor cells (neurosphere cultures)", "numeric_readout": "−0.212"}

Note: attention shifts to another entry.
(Q) Z score for C=CCN1CC[C@]23c4c5ccc(O)c4O[C@H]2/C(=N/NC(=O)c2ccccc2)CC[C@@]3(O)[C@H]1C5 [Naloxone benzoylhydrazone] ?
(A) 1.915

---

# Test system: murine neural precursor cells (neurosphere cultures)
# method_summary: HTS of LOPAC library against secondary neurosphere cultures, MTT proliferation assay at 3 μM, day 7 (z score, P value)
# Type: cell-based, mouse
# assay_setup: LOPAC primary screen, neurosphere MTT proliferation, 3 μM, day 7
Structures can show the parent of a compound that is named as a salt.
property: Z score
Answer with the value's number alone.

Look over these answered cases.
{"molecule": "CC(=O)O[C@H]1C(=O)[C@@]2(C)[C@H]([C@H](OC(=O)c3ccccc3)[C@]3(O)C[C@H](OC(=O)[C@H](O)[C@@H](NC(=O)c4ccccc4)c4ccccc4)C(C)=C1C3(C)C)[C@]1(OC(C)=O)CO[C@@H]1C[C@@H]2O [Taxol]", "property": "Z score", "numeric_readout": "−11.274"}
{"molecule": "CC12NC(Cc3ccccc31)c1ccccc12.O=C(O)/C=C\\C(=O)O (single isomer, unassigned; (+)) [(+)-MK-801 hydrogen maleate]", "property": "Z score", "numeric_readout": "−0.098"}
{"molecule": "Cl.c1ccc(CN2CCC3(CCCc4ccccc43)CC2)cc1 [L-687,384 hydrochloride]", "property": "Z score", "numeric_readout": "−9.156"}
{"molecule": "CN(C)CCCN1c2ccccc2CCc2ccccc21 [Imipramine hydrochloride]", "property": "Z score", "numeric_readout": "−0.527"}
{"molecule": "COc1cc(C(O)CO)ccc1OS(=O)(=O)[O-].[K+] (centres unmarked) [MHPG sulfate potassium]", "property": "Z score", "numeric_readout": "−0.556"}

(Q) Request body: readout Z score, system murine neural precursor cells (neurosphere cultures), query CC(C)NCC(O)c1ccc(O)c(O)c1.Cl (single isomer, unassigned; (-)) [(−)-Isoproterenol hydrochloride] . Return the value.
(A) 0.237

(Q) Request: Z score, test system murine neural precursor cells (neurosphere cultures), entry C=C/C(C)=C/[C@@]1(C)SC(=O)C(C)=C1O [Thiolactomycin]
(A) −1.300

---

# System: murine neural precursor cells (neurosphere cultures)
# method_summary: HTS of LOPAC library against secondary neurosphere cultures, MTT proliferation assay at 3 μM, day 7 (z score, P value)
# Assay type: cell-based, mouse
# assay_setup: LOPAC primary screen, neurosphere MTT proliferation, 3 μM, day 7
Would you please tag the item yes (1) when its Z score is -2 or above, and no (0) when it is below?

Some solved entries appear below for comparison.
{"compound": "COc1cc(C(O)CN)ccc1O.Cl (racemic) [(±)-Normetanephrine hydrochlodride]", "cat": "yes (1)"}
{"compound": "CN1CCc2cc(O)cc3c2[C@H]1Cc1ccc(O)c(O)c1-3 [R(−)-2,10,11-Trihydroxyaporphine]", "cat": "no (0)"}
{"compound": "CCC1(C)CC(=O)NC1=O (stereo not drawn) [Ethosuximide]", "cat": "yes (1)"}

(Q) For this compound, is measured Z score -2 or higher? C[n+]1cc2c3c(ccc2c2ccc4cc5c(cc4c21)OCO5)OCO3 [Sanguinarine chloride]
(A) no (0)

(Q) Evaluate N.N.N.N.N.N.N.N.N.N.N.N.N.N.[Cl-].[Cl-].[Cl-].[Cl-].[Cl-].[Cl-].[O-2].[O-2].[Ru+3].[Ru+3].[Ru+4] [Ruthenium red] : Z score at minimum -2?
(A) yes (1)

(Q) Decide: is the reported value of Z score for N[C@@H](Cn1oc(=O)[nH]c1=O)C(=O)O [(+)-Quisqualic acid] equal to or greater than -2?
(A) yes (1)

(Q) Entry CNCCc1c[nH]c2ccc(O)cc12.O=C(O)C(=O)O : is its Z score no less than -2?
(A) yes (1)

(Q) Hi team, for Nc1ccn([C@H]2CC[C@@H](CO)O2)c(=O)n1 [2′,3′-dideoxycytidine] , is the recorded Z score at or above -2?
(A) yes (1)

(Q) Please indicate if the recorded Z score for O=C(O)c1ccccc1Nc1ccccc1 [N-Phenylanthranilic acid] meets or exceeds -2.
(A) yes (1)

(Q) Does the compound N[C@@H](COP(=O)(O)O)C(=O)O [O-Phospho-L-serine] have recorded Z score that is -2 or more?
(A) yes (1)

(Q) Does the compound Cl.O=C(Cc1ccc(Cl)c(Cl)c1)N1CCCCC1CN1CCCC1 (stereo not drawn) [BRL 52537 hydrochloride] have recorded Z score that is -2 or more?
(A) no (0)

(Q) Identify whether the reported Z score of the following compound is -2 or greater: CC(Cc1ccc(O)c(O)c1)C(C)Cc1ccc(O)c(O)c1 (stereo not drawn)
(A) yes (1)

(Q) Quick check: does CCN1C(=O)C=CC1=O [N-Ethylmaleimide] have Z score greater than or equal to -2?
(A) yes (1)

(Q) Hi team, for Br.CCCN(CCC)C1CCc2ccc(O)cc2C1 (racemic) [(±)-7-Hydroxy-DPAT hydrobromide] , is the recorded Z score at or above -2?
(A) no (0)

(Q) Check this compound for Z score at or above -2: CCCn1c(=O)c2[nH]c(C3CCCC3)nc2n(CCCOC(=O)c2ccc(S(=O)(=O)F)cc2)c1=O [FSCPX]
(A) yes (1)

(Q) Does the reported Z score for O=S(=O)(c1cccc2cnccc12)N1CCNCC1 [HA-100] fall at or above the -2 mark?
(A) yes (1)

(Q) Tell me whether Z score is at least -2 here: C=CCN1C[C@H](C)N([C@H](c2ccc(C(=O)N(CC)CC)cc2)c2cccc(OC)c2)C[C@H]1C [SNC80]
(A) yes (1)

(Q) Z score >= -2 for COc1cc([C@@H]2c3cc4c(cc3[C@H](O)[C@H]3COC(=O)[C@H]23)OCO4)cc(OC)c1OC [Podophyllotoxin] ?
(A) no (0)

---

# Tested on: murine neural precursor cells (neurosphere cultures)
# method_summary: HTS of LOPAC library against secondary neurosphere cultures, MTT proliferation assay at 3 μM, day 7 (z score, P value)
# Format: cell-based, mouse
# assay_setup: LOPAC library screen, 3 μM, MTT, secondary neurosphere cultures, day 7
Counter-ions that a name gives are not always drawn.
property: Z Score
Form rule: numeric answer, no unit written next to it.

// known answers, use as guide
{"molecule": "CCCOc1ccccc1-c1nc2nn[nH]c2c(=O)[nH]1 [Zaprinast]", "property": "Z Score", "numeric_readout": "−2.506"}
{"molecule": "CN1C(C)(C)CCCC1(C)C [Pempidine tartrate]", "property": "Z Score", "numeric_readout": "−1.719"}
{"molecule": "Cn1cnc([N+](=O)[O-])c1Sc1ncnc2nc[nH]c12 [Azathioprine]", "property": "Z Score", "numeric_readout": "−7.913"}
{"molecule": "Cc1ccc(=O)n(-c2ccccc2)c1 [Pirfenidone]", "property": "Z Score", "numeric_readout": "−1.482"}

(Q) Returns the measured Z Score for the input molecule. Input: Clc1ccc(C(c2ccccc2Cl)C(Cl)Cl)cc1 (stereo not drawn)
(A) −2.508

(Q) Sample CNC1(C)C2CCC(C2)C1(C)C (stereo not drawn) [Mecamylamine hydrochloride] — what was its Z Score?
(A) −2.108

---

Recorded Z score values for a group of compounds are listed next.
# System: murine neural precursor cells (neurosphere cultures)
# method_summary: HTS of LOPAC library against secondary neurosphere cultures, MTT proliferation assay at 3 μM, day 7 (z score, P value)
# Assay type: cell-based, mouse
# assay_setup: LOPAC primary screen, neurosphere MTT proliferation, 3 μM, day 7
Where a name gives a salt, the structure may show the parent alone.
# output: bare number, no unit

Consider the following illustrative entries.
{"compound": "C=C(C)[C@@H]1CC=C(C(=O)O)CC1 [(−)-Perilic acid]", "property": "Z score", "numeric_readout": "−1.321"}
{"compound": "Nc1nc(SCc2ccc([N+](=O)[O-])cc2)c2ncn([C@@H]3O[C@H](CO)[C@@H](O)[C@H]3O)c2n1", "property": "Z score", "numeric_readout": 0.102}
{"compound": "Cl.Cl.NNCc1cccc(O)c1 [3-Hydroxybenzylhydrazine dihydrochloride]", "property": "Z score", "numeric_readout": "−0.487"}
{"compound": "CC(C(=O)O)c1ccc(CC2CCCC2=O)cc1 (centres unmarked)", "property": "Z score", "numeric_readout": "−0.883"}

(Q) Requested field: Z score. Item: NCC(CP(=O)(O)O)c1ccc(Cl)cc1 (centres unmarked)
(A) 0.970

(Q) Could you tell me which Z score is on file for CCCC(=O)NCCc1c2n(c3ccc(OC)cc13)Cc1ccccc1-2 ?
(A) −0.354

(Q) Param item = COc1cccc2c1[C@@H]1CN(CCCCn3c(=O)[nH]c4c(sc5ncc(-c6ccccc6)nc54)c3=O)C[C@@H]1CO2 [Fiduxosin hydrochloride] ; retrieve measured Z score.
(A) 0.200

(Q) Requested read-out: Z score. Entry: Cc1cn([C@H]2C[C@H](N=[N+]=[N-])[C@@H](CO)O2)c(=O)[nH]c1=O
(A) −5.023
